Values were extracted from patent EP4790049A1.

molecular target: Human recombinant MAO-B (Homo sapiens, UniProt P27338); construct: Full-length human recombinant MAO-A and MAO-B proteins were both expressed in Baculovirus infected Sf 9 cells; FLAG (N); test: Human recombinant MAO-B inhibitory activity assay (Promega MAO-Glo); settings: human recombinant enzyme expressed in Sf 9 cells; substrate benzylamine 40 µM; 15 min pre-incubation, 60 min reaction, room temperature; 10 concentrations, duplicate wells
Sequence (P27338 whole entry): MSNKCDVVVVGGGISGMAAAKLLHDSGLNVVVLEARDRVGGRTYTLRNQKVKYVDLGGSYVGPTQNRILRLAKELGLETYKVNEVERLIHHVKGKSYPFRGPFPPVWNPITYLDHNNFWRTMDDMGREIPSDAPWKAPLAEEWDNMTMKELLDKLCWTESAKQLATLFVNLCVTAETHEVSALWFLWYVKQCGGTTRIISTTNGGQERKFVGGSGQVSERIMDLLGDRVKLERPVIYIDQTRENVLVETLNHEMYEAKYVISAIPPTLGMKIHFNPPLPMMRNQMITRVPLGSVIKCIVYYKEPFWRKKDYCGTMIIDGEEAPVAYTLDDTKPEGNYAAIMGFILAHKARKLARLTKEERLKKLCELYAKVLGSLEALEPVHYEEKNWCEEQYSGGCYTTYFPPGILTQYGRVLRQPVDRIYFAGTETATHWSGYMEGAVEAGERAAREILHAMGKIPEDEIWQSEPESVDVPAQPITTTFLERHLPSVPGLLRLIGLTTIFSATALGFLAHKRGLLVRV
Where a name gives a salt, the structure may show the parent alone.
METRIC NAME: IC50

Ask: Suppose we examine the compound CC1C[C@H](c2ccc(-c3ccc(C(F)(F)F)cc3)cc2)N[C@@H]1C(N)=O (stereo partly drawn) [Compound 25, hydrochloride] ; what IC50 value has been reported?
Result: 1510 nM

Ask: Proceed to NC(=O)[C@@H]1CC[C@@H](c2ccc(-c3ccc(C(F)(F)F)cc3)cc2)N1 [Compound 6, hydrochloride]
Result: 104 nM

Ask: Proceed to NC(=O)[C@H]1CC[C@@H](c2ccc(-c3ccc(C(F)(F)F)cc3)cc2)N1 [Compound 8, hydrochloride]
Result: 562 nM

Ask: Proceed to "CN1[C@@H](c2ccc(-c3ccc(C(F)(F)F)cc3)cc2)CC[C@H]1C(N)=O"
Result: 3670 nM

Ask: Proceed to NC(=O)[C@@H]1CC[C@H](c2ccc(-c3ccc(Cl)cc3)cc2)N1 [Compound 10, hydrochloride]
Result: 564 nM

Ask: Proceed to COC(=O)[C@@H]1CC[C@H](c2ccc(-c3ccc(F)cc3)cc2)N1 [Compound 32, hydrochloride]
Result: 1990 nM

Ask: Proceed to CN(C)C(=O)[C@@H]1CC[C@H](c2ccc(-c3ccc(C(F)(F)F)cc3)cc2)N1 [Compound 28, hydrochloride]
Result: 1000 nM

Ask: Proceed to NC(=O)[C@@H]1CC[C@H](c2ccc(-c3ccc(C(F)(F)F)cc3)cc2)N1 [Compound 1, hydrochloride]
Result: 83 nM

Ask: Proceed to Cc1ccc(-c2ccc([C@H]3CC[C@@H](C(N)=O)N3)cc2)cc1 [Compound 17, hydrochloride]
Result: 710 nM

Ask: Proceed to NC(=O)[C@@H]1CC[C@H](c2ccc(-c3ccc(F)cc3)cc2)N1 [Compound 2, hydrochloride]
Result: 1510 nM

Ask: Proceed to NC(=O)[C@H]1CC[C@H](c2ccc(-c3ccc(C(F)(F)F)cc3)cc2)N1 [Compound 7, hydrochloride]
Result: 147 nM

Ask: Proceed to Cc1cc(-c2ccc(C(F)(F)F)cc2)ccc1[C@H]1CC[C@@H](C(N)=O)N1 [Compound 19, hydrochloride]
Result: 891 nM

Ask: Proceed to NC(=O)[C@@H]1CC[C@H](c2ccc(-c3ccc([N+](=O)[O-])cc3)cc2)N1 [Compound 12, hydrochloride]
Result: 796 nM

Ask: Proceed to NC(=O)[C@@H]1CC[C@H](c2ccc(-c3ccc(C(=O)O)cc3)cc2)N1 [Compound 13, hydrochloride]
Result: 1540 nM

Ask: Proceed to NC(=O)[C@@H]1CC[C@H](c2ccc(-c3ccccc3C(F)(F)F)cc2)N1 [Compound 9, hydrochloride]
Result: 890 nM

* * *

target: Human recombinant MAO-A (Homo sapiens); construct: Full-length human recombinant MAO-A and MAO-B proteins were both expressed in Baculovirus infected Sf 9 cells; FLAG (N); assay: Human recombinant MAO-A inhibitory activity assay (Promega MAO-Glo); conditions: human recombinant enzyme expressed in Sf 9 cells; substrate tyramine 40 µM; 15 min pre-incubation, 60 min reaction, room temperature; 10 concentrations, duplicate wells
Sequence (P21397 whole entry): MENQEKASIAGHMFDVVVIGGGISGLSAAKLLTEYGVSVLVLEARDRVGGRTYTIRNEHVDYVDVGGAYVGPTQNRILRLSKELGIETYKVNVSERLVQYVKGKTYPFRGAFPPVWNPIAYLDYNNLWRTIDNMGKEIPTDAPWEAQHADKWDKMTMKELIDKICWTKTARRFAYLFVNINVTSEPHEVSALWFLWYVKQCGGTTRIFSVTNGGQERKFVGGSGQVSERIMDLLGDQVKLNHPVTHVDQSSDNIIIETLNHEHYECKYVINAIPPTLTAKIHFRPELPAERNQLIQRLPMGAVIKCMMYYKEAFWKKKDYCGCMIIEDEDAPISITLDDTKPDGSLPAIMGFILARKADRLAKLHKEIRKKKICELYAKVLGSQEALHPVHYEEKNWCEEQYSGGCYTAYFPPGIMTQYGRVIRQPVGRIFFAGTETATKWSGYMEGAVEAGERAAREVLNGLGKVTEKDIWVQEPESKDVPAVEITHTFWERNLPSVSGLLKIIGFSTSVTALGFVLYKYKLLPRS
Structures can show the parent of a compound that is named as a salt.
Would you mind telling me the reported IC50 of each entry?

Ask: Suppose we examine the compound NC(=O)[C@@H]1CC[C@H](c2ccc(-c3ccc(C(F)(F)F)cc3)cc2)N1 [Compound 1, hydrochloride] ; what IC50 value has been reported?
Result: > 10 µM

Ask: Proceed to Cc1cc(-c2ccc(C(F)(F)F)cc2)ccc1[C@H]1CC[C@@H](C(N)=O)N1 [Compound 19, hydrochloride]
Result: > 10 µM

Ask: Proceed to NC(=O)[C@@H]1CC[C@H](c2ccc(-c3cccc(F)c3)cc2)N1 [Compound 5, hydrochloride]
Result: > 10 µM

Ask: Proceed to Cc1ccc(-c2ccc([C@H]3CC[C@@H](C(N)=O)N3)cc2)cc1 [Compound 17, hydrochloride]
Result: 6.33 µM

Ask: Proceed to NC(=O)[C@H]1CC[C@H](c2ccc(-c3ccc(C(F)(F)F)cc3)cc2)N1 [Compound 7, hydrochloride]
Result: > 10 µM

Ask: Proceed to N#Cc1cc(-c2ccc(C(F)(F)F)cc2)ccc1[C@H]1CC[C@@H](C(N)=O)N1 [Compound 21, hydrochloride]
Result: > 10 µM

Ask: Proceed to NC(=O)[C@@H]1CC[C@H](c2ccc(-c3ccc(C(=O)O)cc3)cc2)N1 [Compound 13, hydrochloride]
Result: > 10 µM

Ask: Proceed to COc1ccc(-c2ccc([C@H]3CC[C@@H](C(N)=O)N3)cc2)cc1 [Compound 18, hydrochloride]
Result: 9.11 µM

Ask: Proceed to CN(C)C(=O)[C@@H]1CC[C@H](c2ccc(-c3ccc(C(F)(F)F)cc3)cc2)N1 [Compound 28, hydrochloride]
Result: > 10 µM

Ask: Proceed to NC(=O)[C@@H]1CC[C@H](c2ccc(-c3ccc(Cl)cc3)cc2)N1 [Compound 10, hydrochloride]
Result: 83.3 µM

Ask: Proceed to NC(=O)[C@@H]1CC[C@H](c2cc(F)c(-c3ccc(C(F)(F)F)cc3)c(F)c2)N1 [Compound 22, hydrochloride]
Result: > 10 µM

Ask: Proceed to COc1cc(-c2ccc(C(F)(F)F)cc2)ccc1[C@H]1CC[C@@H](C(N)=O)N1 [Compound 20, hydrochloride]
Result: > 10 µM

Ask: Proceed to NC(=O)[C@@H]1CC[C@H](c2c(F)cc(-c3ccc(C(F)(F)F)cc3)cc2F)N1 [Compound 24, hydrochloride]
Result: > 10 µM

Ask: Proceed to NC(=O)[C@@H]1CC[C@H](c2ccc(-c3ccccc3)cc2)N1 [Compound 16, hydrochloride]
Result: > 10 µM

Ask: Proceed to NC(=O)[C@@H]1CC[C@H](c2ccc(-c3ccc(F)cc3)cc2)N1 [Compound 2, hydrochloride]
Result: > 10 µM
